- Test system: 8505C (thyroid carcinoma)
- Assay Notes: SRB cytotoxicity assay, 8505C
- Format: cell-based, human
- Stated Conditions: Homo sapiens; SRB assay, 96 h of treatment, 8505C
Observation Type: log10 EC50 (log10 of the value in nM)

C=C(C)C1CC[C@]2(C(=O)NCCCCN)CC[C@]3(C)C(CCC4[C@@]5(C)CC[C@H](OC(C)=O)C(C)(C)C5CC[C@]43C)C12 (stereo partly drawn)
3.15
C=C(C)C1CC[C@]2(C(=O)NCCOCCN)CC[C@]3(C)C(CCC4[C@@]5(C)CC[C@H](OC(C)=O)C(C)(C)C5CC[C@]43C)C12 (stereo partly drawn)
3.34
C=C(C)C1CC[C@]2(C(=O)NCCN3CCCCC3)CC[C@]3(C)C(CCC4[C@@]5(C)CC[C@H](O)C(C)(C)C5CC[C@]43C)C12 (stereo partly drawn)
2.90
CC(=O)O[C@H]1CC[C@@]2(C)C(CC[C@]3(C)C2CC=C2C4[C@@H](C)[C@H](C)CC[C@]4(C(=O)NCCN(C)C)CC[C@]23C)C1(C)C (stereo partly drawn)
3.92
C=C(C)C1CC[C@]2(C(=O)NCCN(C)C)CC[C@]3(C)C(CCC4[C@@]5(C)CC[C@H](O)C(C)(C)C5CC[C@]43C)C12 (stereo partly drawn)
2.60
C=C(C)C1CC[C@]2(C(=O)NCCN3CCNCC3)CC[C@]3(C)C(CCC4[C@@]5(C)CC[C@H](O)C(C)(C)C5CC[C@]43C)C12 (stereo partly drawn)
2.93
